test: Cytotoxicity against human MIAPaCa2 cells by MTT assay; assay type: functional, cell-based; details: MIA PaCa-2
REPORTED METRIC: IC50

// below: answered molecules
{"columns": ["SMILES RECORD", "ASSAY VALUE"],
 "data": [
  ["C[N+]1(Cc2ccccc2)CCN(c2ccc(/C=C/C(=O)/C=C(O)/C=C/c3ccc(N4CC[N+](C)(Cc5ccccc5)CC4)cc3)cc2)CC1.[Br-].[Br-]", "> 100 µM"],
  ["C=CC[N+]1(C)CCN(c2ccc(/C=C/C(=O)/C=C(O)/C=C/c3ccc(N4CC[N+](C)(CC=C)CC4)cc3)cc2)CC1.[Br-].[Br-]", "> 100 µM"],
  ["C=C(C[N+]1(C)CCN(c2ccc(/C=C/C(=O)/C=C(O)/C=C/c3ccc(N4CC[N+](C)(CC(=C)C(=O)OC)CC4)cc3)cc2)CC1)C(=O)OC.[Br-].[Br-]", "2.7 µM"]
]}

Input: Return IC50 for the following molecule: O=C(/C=C(O)/C=C/c1ccc(N2CCN(CCO)CC2)cc1)/C=C/c1ccc(N2CCN(CCO)CC2)cc1
Output: > 100 µM
